molecular target: PCSK9 (Homo sapiens, UniProt Q8NBP7); assay: BODIPY-LDL uptake assay in HepG2 cells; format: cell-based; conditions: 10 μM test compound, 5 μg/ml PCSK9, BODIPY-LDL
Sequence (Q8NBP7 153-692): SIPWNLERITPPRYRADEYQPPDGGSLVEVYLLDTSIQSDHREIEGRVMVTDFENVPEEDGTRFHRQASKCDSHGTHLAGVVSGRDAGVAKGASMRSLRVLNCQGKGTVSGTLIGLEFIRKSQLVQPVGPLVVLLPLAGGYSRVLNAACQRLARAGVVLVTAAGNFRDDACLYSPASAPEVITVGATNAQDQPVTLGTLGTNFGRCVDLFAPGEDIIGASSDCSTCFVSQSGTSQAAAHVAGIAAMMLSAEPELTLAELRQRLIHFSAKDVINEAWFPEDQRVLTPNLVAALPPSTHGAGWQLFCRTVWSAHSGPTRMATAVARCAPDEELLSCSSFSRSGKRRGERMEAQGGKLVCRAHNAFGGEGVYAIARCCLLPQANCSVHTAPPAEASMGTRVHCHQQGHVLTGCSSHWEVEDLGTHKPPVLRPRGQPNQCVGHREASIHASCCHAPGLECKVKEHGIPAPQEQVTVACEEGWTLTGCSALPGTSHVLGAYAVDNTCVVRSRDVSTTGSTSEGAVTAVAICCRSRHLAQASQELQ
Recorded measurements of % increase in LDL Uptake, one per entry

{"columns": ["MOLECULE", "% increase in LDL Uptake"],
 "data": [
  ["O=C(c1cccc(C2(O)COC2)c1)N1CCc2scc(-c3ccc(C(F)(F)F)cc3)c2C1", "12%"],
  ["O=C(Nc1ccc(C2(O)COC2)cc1)N1CC2CN(c3ccc(C(F)(F)F)cc3)CC2C1 (centres unmarked)", "38%"],
  ["O=C(c1ccc(C2(O)COC2)cc1)N1CCC(c2ccccc2C(F)(F)F)CC1", "73%"],
  ["O=C(c1ccc(C2(O)COC2)cc1)N1CC2CN(c3ccc(C(F)(F)F)nc3)CC2C1 (centres unmarked)", "90%"],
  ["CC(C)OC1(c2ccc(C(=O)N3CC4CN(c5ccc(C(F)(F)F)cc5)CC4C3)cc2)COC1 (centres unmarked)", "12%"],
  ["Cc1ccc(C2=CC3CN(C(=O)c4ccc(C5(O)COC5)cc4)CC3C2)cc1 (centres unmarked)", "20%"],
  ["COC1(c2ccc(C(=O)N3CCC(c4cccc(C(F)(F)F)c4)CC3)cc2)COC1", "65%"],
  ["COCCOC1(c2ccc(C(=O)N3CC4CN(c5ccc(C(F)(F)F)cc5)CC4C3)cc2)COC1 (centres unmarked)", "66%"]
]}

Origin of measurements: patent US20230089247A1
